Taken from ChEMBL document CHEMBL1201862.

system: SNB-19; assay: NCI tumour cell line growth inhibition, 48 h
Activity calls are given as the source filed them. No stated cut-off is given here; in the data, active = GI50 up to about 1.1 µM and inactive = higher.
Result Type: GI50

Please review the following examples before continuing.
Query: For COC(OC)c1cc2c(cc1C=O)OCO2 , write its GI50.
Reply: > 100 µM (inactive)

Query: Fill in GI50 for record CNc1ccc2nc(-c3ccc(OC(=O)N(C)C)cc3)cn2c1
Reply: 16.1 µM (inactive)

Please state, for each entry, its recorded GI50.
1. O=C(C[n+]1ccc2ccccc2c1)c1ccc2ccc3ccccc3c2c1
2. NC(CCCCNc1ccn(C2OC(CO)C(O)C2O)c(=O)n1)C(=O)O (stereo not given)
3. C=C(CCC/C(C)=C/C=C/[C@H](C)CCCc1ccoc1)C[C@@H]1OC(=O)[C@H](C)[C@@H]1O
4. O=C(/C=C1\N=C(c2ccccc2)N(c2nc3c(Cl)cc(Cl)cc3s2)C1=O)/C=C/c1ccccc1
5. N#CC12C(=O)N3C(=NC(c4ccco4)NC3c3ccco3)C1(C#N)C(c1ccco1)NC1=C2CCCC1 (stereo not given)

Reply:
["2.6 µM (inactive)", "> 100 µM (inactive)", "8.81 µM (inactive)", "> 100 µM (inactive)", "> 100 µM (inactive)"]

// for each compound in input: emit GI50
1. Cc1ccccc1C(=O)c1ccccc1O
2. O=C(NC(Cc1ccccc1)C(=O)CCl)OCc1ccccc1 (stereo not given)
3. CCP(=S)(CC)CCl
4. C/C(=N\N=C(/S)N(C)C)c1cccc[n+]1[O-]
5. CN(c1ccccc1)S(=O)(=O)c1ccc([N+](=O)[O-])cc1
6. O=C(O)C(CO)NC(=O)C1C(C(=O)O)C(c2ccccc2[N+](=O)[O-])C=C(c2ccco2)N1c1ccncc1 (stereo not given)
7. CNC(=O)Oc1ccc(-c2cn3cc(OC(=O)NC)ccc3n2)cc1
8. Nc1nc(NCC2(CO)CC(CCc3ccccc3)C2)cc(=O)[nH]1 (stereo not given)

Reply:
1: > 100 µM (inactive); 2: 12.3 µM (inactive); 3: > 100 µM (inactive); 4: 91 µM (inactive); 5: > 100 µM (inactive); 6: 12 µM (inactive); 7: 43.3 µM (inactive); 8: > 100 µM (inactive)
